measured-target: P2X7 receptor (Homo sapiens, UniProt Q99572)
Construct: host or cells: THP-1 cells differentiated with LPS and IFN-γ
Sequence (Q99572 whole entry): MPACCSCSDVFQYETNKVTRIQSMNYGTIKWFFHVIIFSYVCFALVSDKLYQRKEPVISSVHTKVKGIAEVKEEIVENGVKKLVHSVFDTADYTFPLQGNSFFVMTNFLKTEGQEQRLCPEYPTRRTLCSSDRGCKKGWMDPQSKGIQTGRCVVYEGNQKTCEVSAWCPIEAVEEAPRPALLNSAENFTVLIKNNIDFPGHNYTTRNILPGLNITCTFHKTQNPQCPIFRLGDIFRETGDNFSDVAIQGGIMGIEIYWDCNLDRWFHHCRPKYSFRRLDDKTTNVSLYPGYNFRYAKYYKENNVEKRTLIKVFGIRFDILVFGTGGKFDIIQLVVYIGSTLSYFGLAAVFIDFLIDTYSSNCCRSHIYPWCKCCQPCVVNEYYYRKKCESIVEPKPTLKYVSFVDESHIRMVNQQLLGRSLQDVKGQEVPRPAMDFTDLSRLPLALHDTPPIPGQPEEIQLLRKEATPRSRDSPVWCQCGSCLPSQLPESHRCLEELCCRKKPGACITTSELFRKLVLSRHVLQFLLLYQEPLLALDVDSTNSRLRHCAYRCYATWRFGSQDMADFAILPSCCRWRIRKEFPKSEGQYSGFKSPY
test-name: Alternate method for IL-1β release assay (differentiated THP-1 cells, BzATP-stimulated, ELISA)
Assay type: cell-based
study-conditions: P2X7; 0.3 μM compound (symbols * to ****); read-out: IL-1β % inhib @ 0.3 μM
reported-metric: inhibition at 0.3 µM

Completed entries (count: 3):
> print(dat)
                                   molecule                           measured.target  endpoint.result
1  O=C(CN1CCN(c2ccccc2)CC1)N1CCc2c(ncnc2NCC23CC4CC(CC(C4)C2)C3)C1  P2X7 receptor (Homo sapiens, UniProt Q99572)        50 to 75%
2  CN1CCC(NCC(=O)N2CCc3c(ncnc3NCC3C4CC5CC(C4)CC3C5)C2)CC1 (centres unmarked)  P2X7 receptor (Homo sapiens, UniProt Q99572)         0 to 25%
3  O=C(CN1CCN(c2ncncn2)CC1)N1CCc2c(ncnc2NCC2C3CC4CC(C3)CC2C4)C1 (centres unmarked)  P2X7 receptor (Homo sapiens, UniProt Q99572)        25 to 50%

The recorded inhibition at 0.3 µM for entry `Fc1cc(C(F)(F)F)ccc1CN1CCc2c(ncnc2NCC23CC4CC(CC(C4)C2)C3)C1` equals > 75%

The recorded inhibition at 0.3 µM for entry `N#Cc1ccc(CN2CCc3c(ncnc3NCC34CC5CC(CC(C5)C3)C4)C2)cc1` equals 25 to 50%

The recorded inhibition at 0.3 µM for entry `Fc1ccc(CN2CCc3c(ncnc3NCC34CC5CC(CC(C5)C3)C4)C2)c(F)c1` equals > 75%

The recorded inhibition at 0.3 µM for entry `CCOc1ccc(CN2CCc3c(ncnc3NCC34CC5CC(CC(C5)C3)C4)C2)cc1` equals > 75%

The recorded inhibition at 0.3 µM for entry `Clc1ccc(CN2CCc3c(ncnc3NCC34CC5CC(CC(C5)C3)C4)C2)cc1` equals > 75%
